- target-desc: PDE3 enzyme (Homo sapiens (Human), UniProt Q14432)
- Sequence (Q14432 whole entry): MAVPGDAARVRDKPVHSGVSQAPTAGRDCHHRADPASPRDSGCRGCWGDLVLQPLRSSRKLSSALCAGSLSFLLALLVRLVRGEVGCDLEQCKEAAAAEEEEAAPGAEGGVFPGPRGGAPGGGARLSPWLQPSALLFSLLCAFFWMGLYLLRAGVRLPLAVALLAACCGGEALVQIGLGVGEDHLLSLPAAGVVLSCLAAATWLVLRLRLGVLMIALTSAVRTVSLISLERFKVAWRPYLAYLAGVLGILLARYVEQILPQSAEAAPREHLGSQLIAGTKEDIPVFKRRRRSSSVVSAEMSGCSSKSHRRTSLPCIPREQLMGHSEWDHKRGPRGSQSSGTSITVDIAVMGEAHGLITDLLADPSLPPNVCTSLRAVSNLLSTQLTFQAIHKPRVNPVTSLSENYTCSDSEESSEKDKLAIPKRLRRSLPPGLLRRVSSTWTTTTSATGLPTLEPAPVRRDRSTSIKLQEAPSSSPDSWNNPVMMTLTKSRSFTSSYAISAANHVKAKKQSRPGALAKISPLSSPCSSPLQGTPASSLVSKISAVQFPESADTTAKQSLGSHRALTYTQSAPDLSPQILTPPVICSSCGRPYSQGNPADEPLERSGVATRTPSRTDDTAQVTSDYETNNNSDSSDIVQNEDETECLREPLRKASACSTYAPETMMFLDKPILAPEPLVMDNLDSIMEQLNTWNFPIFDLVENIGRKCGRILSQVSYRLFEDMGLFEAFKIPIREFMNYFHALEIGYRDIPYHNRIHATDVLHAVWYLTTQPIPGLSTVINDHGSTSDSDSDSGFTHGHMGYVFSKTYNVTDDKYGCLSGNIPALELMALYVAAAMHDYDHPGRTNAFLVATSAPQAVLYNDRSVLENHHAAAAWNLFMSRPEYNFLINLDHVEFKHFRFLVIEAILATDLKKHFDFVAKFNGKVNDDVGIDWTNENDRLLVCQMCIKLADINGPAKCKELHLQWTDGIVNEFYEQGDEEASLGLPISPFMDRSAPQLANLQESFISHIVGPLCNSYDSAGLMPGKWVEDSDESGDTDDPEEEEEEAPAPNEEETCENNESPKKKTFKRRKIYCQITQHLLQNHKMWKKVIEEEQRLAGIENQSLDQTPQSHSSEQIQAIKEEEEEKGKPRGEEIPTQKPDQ
- assay-overview: PDE3 inhibition assay, BIOMOL GREEN Quantizyme Assay System
- protocol-conditions: PDE3 enzyme from platelets isolated from human blood; cAMP substrate; 1 hour at 37° C.; read at 620 nm
endpoint: pIC50
// scale note: pIC50 = -log10(conc_M); give the bare number

Query: Provide measured pIC50 value, entry: CCOC(=O)c1cc(Cc2cccc(F)c2)c(=O)n2c1CCC2 [Compound 1c]
Reply: 7.87

Query: Please give measured pIC50 of the following entry: CCOC(=O)c1cc(Cc2ccccc2Cl)c(=O)n2c1CCC2 [Compound 1e]
Reply: 6.89

Query: Indicate its recorded pIC50; the compound in question is CCOC(=O)c1cc(Cc2ccc(Cl)cc2Cl)c(=O)n2c1CCC2 [Compound 1h]
Reply: 6.24

Query: Using known records, supply pIC50 for CCOC(=O)c1cc(Cc2ccc(Cl)cc2)c(=O)n2c1CCC2 [Compound 1g]
Reply: 6.97

Query: Give me measured pIC50, please, for this compound: CCOC(=O)c1cc(Cc2cccc(Br)c2)c(=O)n2c1CCC2 [Compound 1j]
Reply: 7.95

Query: Respond only with pIC50 recorded for CCOC(=O)c1cc(Cc2ccccc2)c(=O)n2c1CCC2 [Compound 1a]
Reply: 6.36

Query: Please report the measured pIC50 for CCOC(=O)c1cc(Cc2ccc(Br)cc2)c(=O)n2c1CCC2 [Compound 1k]
Reply: 7.17

Query: Give me measured pIC50, please, for this compound: CCOC(=O)c1cc(Cc2ccc(F)cc2)c(=O)n2c1CCC2 [Compound 1d]
Reply: 5.80

src = patent US9249139B2
